- targetUnderTest: DRB1*0101 (Homo sapiens, UniProt P01903+P01911, A100R/D57E/F55L/F60I/F76Y/I96L/L162R/M171V/P40L/Q125E/R42F/V115G/Y59C)
- Construct: purchased Benaroya Research Institute (Seattle, Wash.)
- testSummary: MHC II competition binding assay
- experimentalParameters: DRB1*0101; read-out: IC50
Where no end group is shown, it is not given here.
endpointName: IC50

Check out these entries, answers already filled in.
chain="HLHFQRMVGSFSNPTAQ [Peptide N121G]" result="< 10 nM"
chain="HLHFQRMVNSFGNPTAQ [Peptide S124G]" result="< 10 nM"
chain="DYVEAGQQIGWSGSTGY [Peptide 95-99]" result="< 10 nM"
chain="DHVKAGQQIGWSGSTGY [Peptide 93_99]" result="< 10 nM"

Kindly review the next sequence as well.
Answer with the recorded IC50 for the sequence listed here: DHVEAGQQIGWSGSTGY [Peptide 939599] > 250000 nM
